# System: PLP1-specific T cell hybridoma 4E3
# test-summary: T cell hybridoma activation assay (IL-2 production), 4E3
# Type: cell-based, mouse
# measurement-setup: 4E3 hybridoma, irradiated SJL/J splenocytes; IL-2 by HT-2 3H-thymidine incorporation; FIG. 4; read-out: stimulation to half the maximum level
pEC50: −log10 of the molar value.
reported-property: pEC50

INSERT INTO measurements (biosequence, reported_property, value_measured) VALUES
  ('HSLGKWLGHPNKF [PLP1, a peptide fragment of PLP comprising aa residues 139-151]', 'pEC50', 6.22);
